Ref: ChEMBL document CHEMBL1955769

Test system: HCT-116
Experiment: Antiproliferative activity against human HCT116 cells after 3 days by WST-1 assay
Assay type: functional, cell-based
Conditions: HCT-116, 72 h
observedProperty: pIC50
Give bare numbers, as −log10 of the molar value.

Known pIC50 results, listed for orientation:
CCN1CCN(C(=O)NCc2ccc(C(=O)Nc3cc(-c4cccs4)ccc3N)cc2)C(=O)C1=O; 6.29
Nc1ccccc1NC(=O)c1ccc(CNC(=O)OCc2cccnc2)cc1; 6.12
Nc1ccc(-c2cccs2)cc1NC(=O)c1ccc(CN(CCO)Cc2ccc3c(c2)OCO3)cc1; 6.31
Nc1ccc(-c2cccs2)cc1NC(=O)c1ccc(CNC(=O)N2CCOCC2)cc1; 6.36
Nc1ccccc1NC(=O)c1ccc(CN(CCO)Cc2ccc3c(c2)OCO3)cc1; 5.92

The following compounds each have a reported value; give each one's pIC50.
1. CCC(=O)NCc1ccc(C(=O)Nc2cc(-c3cccs3)ccc2N)cc1
2. CN1CCN(C(=O)NCc2ccc(C(=O)Nc3cc(-c4cccs4)ccc3N)cc2)CC1

[6.25, 6.28]
